# assay-details: 17O NMR of Gd complexes (water exchange, SBM fitting)
# Format: physicochemical
# measurement-context: best-fit, 17O NMR; sometimes fixed
value-type: EV (kcal/mol)
Report as a plain number; the unit kcal/mol is understood.

molecule-smiles: O=C(O)CN1CCN(CCC(=O)NCCN(CCc2ccccn2)Cc2ccccn2)CCN(CC(=O)O)CCN(CC(=O)O)CC1
unit-string: kcal/mol
measurement: 0.239
//
molecule-smiles: O=C(O)CN1CCN(CC(=O)O)CCN(CC(=O)NCCN(Cc2ccccn2)Cc2ccccn2)CCN(CC(=O)O)CC1
unit-string: kcal/mol
measurement: 0.263
//
molecule-smiles: O=C(O)CCN1CCN(CC(=O)O)CCN(CC(=O)NCCN(Cc2ccccn2)Cc2ccccn2)CCN(CC(=O)O)CC1
unit-string: kcal/mol
measurement: 0.263
//
molecule-smiles: O=C(O)CN1CCN(CCC(=O)NCCN(Cc2ccccn2)Cc2ccccn2)CCN(CC(=O)O)CCN(CC(=O)O)CC1
unit-string: kcal/mol
measurement: 0.263

Continue with the next compound.
// query Consider the compound shown here: `O=C(O)CN1CCN(CC(=O)O)CCN(CC(=O)NCCN(CCc2ccccn2)Cc2ccccn2)CCN(CC(=O)O)CC1` What is its recorded EV?
// result 0.239

Hey, just so you know, these numbers are from patent US11713305B2.
